# ASSAYED_TARGET: bacteriophage T4 DNA polymerase (Enterobacteria phage T4, UniProt P04415)
# Construct: made in house
# Sequence (P04415 whole entry): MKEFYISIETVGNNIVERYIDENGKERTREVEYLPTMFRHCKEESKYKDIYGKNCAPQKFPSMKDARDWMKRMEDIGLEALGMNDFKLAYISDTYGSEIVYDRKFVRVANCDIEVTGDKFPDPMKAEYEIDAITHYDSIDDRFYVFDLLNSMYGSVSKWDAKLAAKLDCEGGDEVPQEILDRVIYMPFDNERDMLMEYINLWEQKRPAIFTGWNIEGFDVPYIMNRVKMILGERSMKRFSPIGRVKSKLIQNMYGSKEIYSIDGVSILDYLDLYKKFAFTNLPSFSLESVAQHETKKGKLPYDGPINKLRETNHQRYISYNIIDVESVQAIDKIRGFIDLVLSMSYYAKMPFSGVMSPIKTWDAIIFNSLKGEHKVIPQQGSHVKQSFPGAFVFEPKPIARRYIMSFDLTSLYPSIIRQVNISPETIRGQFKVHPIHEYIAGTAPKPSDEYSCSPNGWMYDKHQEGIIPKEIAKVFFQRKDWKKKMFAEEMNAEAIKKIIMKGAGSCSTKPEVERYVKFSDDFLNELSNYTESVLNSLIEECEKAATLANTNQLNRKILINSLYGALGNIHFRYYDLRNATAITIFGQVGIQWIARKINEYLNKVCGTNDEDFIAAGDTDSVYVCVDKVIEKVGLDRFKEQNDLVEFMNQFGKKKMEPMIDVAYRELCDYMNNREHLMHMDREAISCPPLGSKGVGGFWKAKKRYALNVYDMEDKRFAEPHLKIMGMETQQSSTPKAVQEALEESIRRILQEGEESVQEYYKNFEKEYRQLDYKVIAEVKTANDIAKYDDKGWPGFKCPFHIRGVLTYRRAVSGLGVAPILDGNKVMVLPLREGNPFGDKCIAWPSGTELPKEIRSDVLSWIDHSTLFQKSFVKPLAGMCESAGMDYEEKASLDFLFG
# METHOD: Counter-screen against bacteriophage T4 DNA polymerase
# Format: biochemical
# EXPERIMENTAL_PARAMETERS: DRC-2; 180'; concentration 80
Class 1 (yes): % inhibition T4 180' at least 20%. Class 0 (no): % inhibition T4 180' below 20%.

# MOLECULE, CATEGORY_LABEL
records = [
    ("COc1ccc(C(=O)N2CCc3c(nc4cc(-c5ccccc5Cl)[nH]n4c3=O)C2)cn1", "0 (no)"),
    ("O=C(O)CCS(=O)(=O)c1ccc(-c2ccc(S(=O)(=O)CCC(=O)O)cc2)cc1", "0 (no)"),
    ("Cc1ccc2c(C(=O)NCCc3cccnc3)cc(NC(=O)C(C)C)cc2n1", "1 (yes)"),
    ("CN(C)S(=O)(=O)Oc1ccc(-c2noc(-c3ccc(Oc4cc(Cl)cc(Cl)c4)o3)n2)cc1", "1 (yes)"),
    ("Cc1nc(/N=N/c2ccc(C(=O)[O-])cc2)c(COP(=O)([O-])[O-])c(C=O)c1O.[Na+].[Na+].[Na+]", "0 (no)"),
    ("O=c1[nH]c2ccc([N+](=O)[O-])cc2c(-c2ccccc2)c1Sc1nc2ccccc2o1", "1 (yes)"),
    ("Cc1cccc2c(C(=O)NC(C)C)cc(N(C)C)nc12", "1 (yes)"),
    ("CC1(C)CC(=O)C2=C(C1)OC1=C(C(=O)CC(C)(C)C1)C2c1ccc(O)cc1", "1 (yes)"),
    ("O=C(Cn1ccc2c(=O)[nH]ccc21)Nc1cc(F)ccc1F [Molecule 42, O=C(Cn1ccc2c1cc[nH]c2=O)Nc1cc(F)ccc1F]", "0 (no)"),
    ("CCOC(=O)C1=C2c3cc(OC)c(OC)cc3CC(C)(C)N2C(=O)C1=O", "1 (yes)"),
    ("N#CC(=NNc1cc(C(F)(F)F)cc(C(F)(F)F)c1)C(=O)c1ccco1", "0 (no)"),
    ("COc1cccc(Oc2c(C(F)(F)F)oc3cc(OC(=O)N(C)C)ccc3c2=O)c1", "0 (no)"),
]

====

Collected % inhibition Apol 90' values appear next to each entry.
# ASSAYED_TARGET: P. falciparum apicoplast DNA polymerase (Pf-apPOL) (Plasmodium falciparum)
# METHOD: Fluorescence-based high-throughput DNA polymerase assay (molecular beacon), primary screen and dose-response
# Assay type: biochemical
# EXPERIMENTAL_PARAMETERS: DRC-1; 90'; concentration 40
OBSERVATION_TYPE: % inhibition Apol 90' (%)

# COMPOUND, RESULT_NUMBER
measured = [
    ("N#Cc1c(C2CCCCC2)nc(Sc2ccc(C(F)(F)F)cc2[N+](=O)[O-])[nH]c1=O", 95.5899),
    ("CN1CC(=Cc2ccco2)C(=O)C(=Cc2ccco2)C1", 50.5992),
    ("O=C(O)c1ccc(-c2nc3cc(-c4ccc5nc(-c6ccc(C(=O)O)cc6)[nH]c5c4)ccc3[nH]2)cc1", 66.9827),
    ("CCOc1ccc(/C=C2\\N=C(c3cc([N+](=O)[O-])cc([N+](=O)[O-])c3)OC2=O)cc1", 94.8535),
    ("CCOc1cccc2cc(C(=O)Nc3nnc(-c4ccno4)o3)oc12", 78.9695),
    ("O=C(O)C(=O)Nc1nc(-c2ccc3c(c2)OCCO3)cs1", 33.8146),
    ("COc1ccc(C)cc1NC(=O)Cn1ccc2c(=O)[nH]ccc21 [Molecule 15, COc1ccc(cc1NC(=O)Cn1ccc2c1cc[nH]c2=O)C]", 84.7552),
    ("COc1ccc(C=C2Oc3c(ccc4c3CN(c3ccc5c(c3)OCO5)CO4)C2=O)cc1OC", 69.2799),
    ("CN(C)C=CC(=O)c1ccccn1", 52.2034),
    ("O=C(Cn1ccc2c(=O)[nH]ccc21)Nc1cccc(Cl)c1 [Molecule 23, O=C(Cn1ccc2c1cc[nH]c2=O)Nc1cccc(c1)Cl]", 82.985),
    ("O=c1[nH]c2ccc(Br)cc2c(-c2ccccc2)c1C1=NNC(c2ccco2)C1 (stereo not shown)", 76.3337),
    ("CN(C)C1C(c2ccccc2)=C(c2ccccc2)SC(c2ccccc2)C1[N+](=O)[O-] (stereo not shown)", 68.5649),
    ("O=[N+]([O-])c1cc2c(cc1CN1CCN(c3cccc(Cl)c3)CC1)OCO2", 64.8091),
    ("Cc1ccc(CCNC(=O)c2cnn3c(O)c(Cc4ccccc4F)c(C)nc23)cc1", 78.277),
    ("COc1ccc(NC(=O)Cn2ccc3c(=O)[nH]ccc32)cc1Cl [Molecule 10, COc1ccc(cc1Cl)NC(=O)Cn1ccc2c1cc[nH]c2=O]", 86.3942),
    ("Cc1cc(C)c2c(O)nc(SCC(=O)c3ccc(O)c(O)c3)nc2n1", 93.4235),
    ("CC(NC(=O)Cc1cc(=O)[nH]c(SCc2cccc(Cl)c2)n1)c1ccccc1 (stereo not shown)", 38.5858),
    ("Cc1nc(/N=N/c2ccc(C(=O)[O-])cc2)c(COP(=O)([O-])[O-])c(C=O)c1O.[Na+].[Na+].[Na+]", 68.7531),
    ("Cc1cc(C)c(O)c(/N=C/c2cc([N+](=O)[O-])cc(Br)c2O)c1", 44.716),
    ("COc1ccc(C(=O)N2CCc3c(nc4cc(-c5ccccc5Cl)[nH]n4c3=O)C2)cn1", 82),
    ("O=C1N/C(=N/c2ccccc2Cl)S/C1=C/c1ccc([N+](=O)[O-])o1", 70.6237),
    ("O=C1c2ccccc2C(=O)N1Oc1ccc([N+](=O)[O-])c([N+](=O)[O-])c1", 49.4397),
    ("CCC(C)NC(=O)c1cc(NC(C)=O)cc2nc(C)ccc12 (stereo not shown)", 54.0066),
    ("Cc1ccc(C(=O)/C=C/C=C/C=C/N(C)C)o1", 72.0375),
    ("O=C1NCCCn2cc(S(=O)(=O)Nc3ccccc3)cc21", 60.7318),
    ("Cc1ccccc1C(=O)N1CCc2c(nc3cc(-c4ccccc4)[nH]n3c2=O)C1", 74.5448),
    ("COCC(=O)Nc1c(-c2cccc(F)c2)nc2cc(C)ccn12", 74.869),
    ("Nc1c(S(=O)(=O)O)cc(Nc2ccccc2)c2c1C(=O)c1ccccc1C2=O", 92.3698),
    ("CN(C)C=C1SCc2ccccc2C1=O", 26.7268),
    ("CC(=O)Nc1cc(C(=O)NC(C)C)c2ccc(C)nc2c1", 59.3171),
    ("Cc1cccc(CC(=O)N2CCc3c(nc4cc(-c5ccccc5)[nH]n4c3=O)C2)c1", 81),
]

====

Listed here: items and their measured % inhibition Apol 90'.
# ASSAYED_TARGET: P. falciparum apicoplast DNA polymerase (Pf-apPOL) (Plasmodium falciparum, UniProt Q8ILY1)
# Sequence (Q8ILY1 entry or part of it): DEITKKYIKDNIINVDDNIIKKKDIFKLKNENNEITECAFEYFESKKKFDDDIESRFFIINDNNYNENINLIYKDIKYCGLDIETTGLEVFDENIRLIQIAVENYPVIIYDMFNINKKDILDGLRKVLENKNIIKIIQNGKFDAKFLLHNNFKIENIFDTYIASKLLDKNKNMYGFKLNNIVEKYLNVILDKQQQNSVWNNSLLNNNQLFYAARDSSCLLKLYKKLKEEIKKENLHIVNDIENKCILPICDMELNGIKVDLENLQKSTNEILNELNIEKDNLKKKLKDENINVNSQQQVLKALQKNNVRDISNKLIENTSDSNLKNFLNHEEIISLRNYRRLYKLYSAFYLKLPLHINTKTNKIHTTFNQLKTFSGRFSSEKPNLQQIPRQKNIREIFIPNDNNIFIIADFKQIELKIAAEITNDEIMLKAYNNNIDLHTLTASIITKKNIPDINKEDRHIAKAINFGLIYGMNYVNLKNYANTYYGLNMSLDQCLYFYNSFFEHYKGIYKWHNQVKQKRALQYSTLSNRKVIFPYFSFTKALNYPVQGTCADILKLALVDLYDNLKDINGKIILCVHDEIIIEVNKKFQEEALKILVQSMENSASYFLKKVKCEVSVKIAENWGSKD
# METHOD: Fluorescence-based high-throughput DNA polymerase assay (molecular beacon), primary screen and dose-response
# Assay type: biochemical
# EXPERIMENTAL_PARAMETERS: DRC-1; 90'; concentration 40
OBSERVATION_TYPE: % inhibition Apol 90' (%)

# COMPOUND, RESULT_NUMBER
rows = [
    ("Cc1ccc(NC(=O)Cn2ccc3c(=O)[nH]ccc32)cc1F [Molecule 48, O=C(Cn1ccc2c1cc[nH]c2=O)Nc1ccc(c(c1)F)C]", 60.3661),
    ("O=C(Cc1cc(=O)[nH]c(SCc2ccccc2)n1)Nc1ccc2c(c1)OCO2 [Molecule 46]", 73.6983),
    ("O=C(Nc1nnc(-c2ccno2)o1)c1ccc2c(c1)OCO2 [KU0171343]", 33.5392),
    ("O=C(O)c1cccc(N2N=C(C(F)(F)F)/C(=C/c3ccc(-c4ccccc4[N+](=O)[O-])o3)C2=O)c1 [Molecule 100]", 89.1977),
    ("O=C1C(=Cc2ccncc2)Oc2c1ccc1c2CN(Cc2ccc3c(c2)OCO3)CO1 [KU0199357]", 66.3839),
    ("COc1ccc(-c2n[nH]cc2Oc2ccc(Cl)cc2)c(O)c1 [KU0029837]", 73.85),
    ("NC(=O)c1cc[n+](CC2=C(C(=O)[O-])N3C(=O)[C@@H](NC(=O)[C@@H](c4ccccc4)S(=O)(=O)[O-])[C@H]3SC2)cc1.[Na+] [Molecule 9]", 97.5),
    ("O=[N+]([O-])/C=C/c1ccc(-c2ccc(Br)cc2)o1 [Molecule 31, O=N(=O)/C=C/c1ccc(o1)c1ccc(cc1)Br]", 79.0677),
    ("COc1ccc(CNC(=O)Cn2nc3c(c2NC(=O)Cc2cccs2)CSC3)cc1 [Molecule 55]", 59.3907),
    ("CCCCCCCCCCCCCCCCCC(=O)CCN(C)C [KU0271928]", 42.2957),
    ("COc1ccc2c(c1)C(c1ccccc1OC)CC(=O)O2 (stereo not shown) [Molecule 38, COc1ccc2c(c1)C(CC(=O)O2)c1ccccc1OC]", 89.2946),
    ("O=C(c1c[nH]c2ncccc12)N1CCCC1 [Molecule 63, O=C(c1c[nH]c2c1cccn2)N1CCCC1]", 47.3849),
    ("Cl.NC(CO)C(=O)NNCc1ccc(O)c(O)c1O (stereo not shown) [KU0260493]", 57.8018),
    ("COc1cc(Cl)c(C)cc1NC(=O)Cn1ccc2c(=O)[nH]ccc21 [Molecule 33]", 81.936),
    ("Cc1ncc(CSc2nc(C(C)(C)C)cs2)c(CO)c1O [KU0264007]", 38.5024),
    ("CSC1=C(C#N)C(=C(C#N)C#N)NC(c2ccccc2)=N1 [Molecule 2, CSc1nc([nH]c(=C(C#N)C#N)c1C#N)c1ccccc1]", 93.6444),
]

Values compiled from paper PMC9090415.
